Provenance of the data: the supplement of paper PMC10567573

Measured protein stability index by item
B1: TRIM63 (parent)
chain: QRITQEQEKKLSFIEALIQQYQEQ

Variants of: B1
method_summary: protein stability index of a GFP-peptide fusion (GPS, HEK-293T) (PSI 1-6); higher = more stable;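 note: lentivirally expressed fusions sorted by FACS into six bins by GFP to DsRed ratio, PSI derived from sequencing read proportions per bin multiplied by bin number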
conditions_used: c terminus: a fixed tail appended
Enter a number only.

Solved entries (count: 2):
L11A 3.13
A16F 2.57

The variant listed as Q5V has a reported protein stability index of 1.94

The variant listed as Q7E has a reported protein stability index of 2.76

The variant listed as E6H has a reported protein stability index of 1.71

The variant listed as L11H has a reported protein stability index of 2.8

The variant listed as S12G has a reported protein stability index of 2.71

The variant listed as I3S has a reported protein stability index of 2.59

The variant listed as Q20D has a reported protein stability index of 2.35

The variant listed as Q20A has a reported protein stability index of 2.11

The variant listed as R2E has a reported protein stability index of 1.88

The variant listed as E8R has a reported protein stability index of 1.56

The variant listed as Y21W has a reported protein stability index of 1.8

The variant listed as E8C has a reported protein stability index of 2.09

The variant listed as Q19A has a reported protein stability index of 1.8
